# Protocol Description: Coupled enzyme confirmation of inhibitors against recombinant Mtb PanC (AID 375)
# Condition: coupled enzyme assay; measured here: coupling enzymes IC50 repeat trials unless noted
pIC50: −log10 of the molar value.
Metric: pIC50

>  <Molecule>
Cc1ccc(Cn2ccc(NC(=O)c3cc(-c4ccco4)on3)n2)cc1

>  <Metric>
pIC50

>  <Endpoint Result>
< 4.00

$$$$
>  <Molecule>
COc1ccccc1-c1cc(C(=O)Nc2cc(C)n(Cc3ccc(Cl)cc3)n2)no1

>  <Metric>
pIC50

>  <Endpoint Result>
< 4.00

$$$$
>  <Molecule>
Cc1cc(NC(=O)c2cc(-c3ccco3)on2)nn1Cc1ccc(Cl)cc1

>  <Metric>
pIC50

>  <Endpoint Result>
< 4.00

$$$$
>  <Molecule>
Cc1ccccc1Cn1cc(NC(=O)c2noc3c2CC(C(C)(C)C)CC3)cn1 (stereo not given)

>  <Metric>
pIC50

>  <Endpoint Result>
< 4.00

$$$$

Continue with the next molecule.
**Query** Provide measured pIC50 value, entry: `COc1ccc(-c2cc(C(=O)Nc3cc(C)n(Cc4ccc(Cl)cc4)n3)no2)cc1OC`
**Result** < 4.00

###

# Test System: Pantothenate synthetase (Mycobacterium tuberculosis (strain ATCC 25618 / H37Rv))
# Protocol Description: Coupled enzyme confirmation of inhibitors against recombinant Mtb PanC (AID 375);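 for inhibition: 0% = full reaction with vehicle and 100% = no enzyme background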
# Condition: coupled enzyme assay; at 10 µM, stronger effect = higher value
Property: inhibition; scope: individual compounds
Report the figure in % without appending any unit label.

Check out these entries, answers already filled in.
>  <Compound>
CN(C)CCCOC(=O)CCc1ccccc1

>  <Unit>
%

>  <inhibition>
0

$$$$
>  <Compound>
Cc1cc(-c2ccccc2)nnc1NCCN1CCOCC1

>  <Unit>
%

>  <inhibition>
0

$$$$
>  <Compound>
COc1ccc2c(c1)n([O-])c1c([n+]2=O)CCC1

>  <Unit>
%

>  <inhibition>
0

$$$$

Continue with the next compound.
**Query** Provide measured inhibition value, entry: `COc1ccccc1Oc1ccc(S(=O)(=O)N2CCOCC2)cc1S(=O)(=O)N1CCOCC1`
**Result** 0

###

Property: inhibition; scope: individual compounds
# Test System: Pantothenate synthetase (Mycobacterium tuberculosis (strain ATCC 25618 / H37Rv)) (UniProt P9WIL5)
# Sequence (P9WIL5 whole entry, looked up): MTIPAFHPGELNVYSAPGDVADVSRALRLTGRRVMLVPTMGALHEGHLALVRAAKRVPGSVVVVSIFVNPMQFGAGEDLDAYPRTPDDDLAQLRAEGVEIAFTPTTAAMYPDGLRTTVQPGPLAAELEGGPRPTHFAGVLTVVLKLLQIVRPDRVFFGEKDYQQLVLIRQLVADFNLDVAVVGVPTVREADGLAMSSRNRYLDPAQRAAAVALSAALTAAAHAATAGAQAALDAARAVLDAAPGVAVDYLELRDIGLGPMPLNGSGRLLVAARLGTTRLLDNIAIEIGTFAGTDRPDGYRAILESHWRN
# Protocol Description: Coupled enzyme confirmation of inhibitors against recombinant Mtb PanC (AID 375);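 for inhibition: 0% = full reaction with vehicle and 100% = no enzyme background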
# Condition: coupled enzyme assay; at 10 µM, stronger effect = higher value
Report the figure in % without appending any unit label.

Check out these entries, answers already filled in.
>  <Compound>
CCOc1ccccc1C(=O)N1CCN(c2cccc(Cl)c2)CC1

>  <inhibition (%)>
0

$$$$
>  <Compound>
COC(=O)C1=C(C)NC(=O)C1(NC(=O)CN1CCCC1=O)C(F)(F)F (stereo unspecified)

>  <inhibition (%)>
5

$$$$
>  <Compound>
Cc1cc(N2CCN(C)CC2)nc(N2CCOCC2)n1

>  <inhibition (%)>
0

$$$$
>  <Compound>
CCOC(=O)C1CCN(CC(=O)c2c(C)[nH]c3ccccc23)CC1

>  <inhibition (%)>
1

$$$$

**Query** Provide measured inhibition value, entry: CC(C(=O)c1ccccc1)n1cnc2ccccc2c1=O (stereo unspecified)
**Result** 9

**Query** Provide measured inhibition value, entry: `CCN(CC)C(=O)COc1ccc2oc(C)c(C(=O)OC(C)C)c2c1`
**Result** 4

**Query** Provide measured inhibition value, entry: `CCOc1cc(C)c(Cl)cc1S(=O)(=O)N(C)C`
**Result** 5

**Query** Provide measured inhibition value, entry: `Cn1c(=O)oc2cc(S(=O)(=O)N3CCN(c4ccccn4)CC3)ccc21`
**Result** 0

**Query** Provide measured inhibition value, entry: `Cc1sc2nc(SCC(=O)NCc3ccco3)n(CCc3ccccc3)c(=O)c2c1C`
**Result** 0

**Query** Provide measured inhibition value, entry: `COC(=O)c1ccc(CSc2nc(-c3ccc(OC)cc3)nc3c2c(=O)n(C)c(=O)n3C)o1`
**Result** 10

**Query** Provide measured inhibition value, entry: CCSc1nnc(N2C(=O)CC(c3ccsc3)C3=C2CC(C)(C)CC3=O)s1 (stereo unspecified)
**Result** 0

###

Property: inhibition; scope: individual molecules
# Test System: Pantothenate synthetase (Mycobacterium tuberculosis (strain ATCC 25618 / H37Rv)) (UniProt P9WIL5)
# Protocol Description: Coupled enzyme confirmation of inhibitors against recombinant Mtb PanC (AID 375);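 for inhibition: 0% = full reaction with vehicle and 100% = no enzyme background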
# Condition: coupled enzyme assay; at 10 µM, stronger effect = higher value
Report the figure in % without appending any unit label.

>  <Molecule>
CCCC(=O)Nc1ccc(OCC(=O)OC)cc1

>  <Metric>
inhibition

>  <Endpoint Result>
5

$$$$

Continue with the next molecule.
**Query** Provide measured inhibition value, entry: `CC(=O)N1CCN(C(C)=O)C1c1ccccc1`
**Result** 2

###

Property: inhibition; scope: individual compounds
# Test System: Pantothenate synthetase (Mycobacterium tuberculosis (strain ATCC 25618 / H37Rv))
# Protocol Description: Coupled enzyme confirmation of inhibitors against recombinant Mtb PanC (AID 375);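 for inhibition: 0% = full reaction with vehicle and 100% = no enzyme background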
# Condition: coupled enzyme assay; at 10 µM, stronger effect = higher value
Report the figure in % without appending any unit label.

Check out these entries, answers already filled in.
>  <Compound>
COc1ccc(-c2ccc(=O)n(Cc3cc(=O)n4ccccc4n3)n2)cc1

>  <Endpoint Result>
0

$$$$
>  <Compound>
Cc1cc(C)n(CCc2nc(-c3cccs3)cs2)n1

>  <Endpoint Result>
2

$$$$
>  <Compound>
CCCCNC(=O)c1c(N)n(CCCOC)c2nc3ccccc3nc12

>  <Endpoint Result>
0

$$$$
>  <Compound>
N#Cc1c(N2CCOCC2)nc(N2CCCCC2)c2c1CCN(C1CCCCC1)C2

>  <Endpoint Result>
0

$$$$

**Query** Provide measured inhibition value, entry: `c1ccc(-c2nnc(CSc3nncs3)o2)cc1`
**Result** 0

**Query** Provide measured inhibition value, entry: C=CCSC1=C(C#N)C(c2ccccc2)CC(=O)N1 (centres undefined)
**Result** 0

**Query** Provide measured inhibition value, entry: O=C1OC(N2CCN(c3ccccn3)CC2)c2ccccc21 (centres undefined)
**Result** 0

**Query** Provide measured inhibition value, entry: `CCOc1ccc(Cl)cc1S(=O)(=O)N1CCCC1`
**Result** 0

**Query** Provide measured inhibition value, entry: `CCOc1cc(C(=O)N(C)Cc2cc3ccccc3[nH]c2=O)cc(OCC)c1OCC`
**Result** 7

**Query** Provide measured inhibition value, entry: `CC1(C)Cc2nc3oc4c(N(CCO)Cc5ccccc5)ncnc4c3cc2CO1`
**Result** 0

###

# Test System: Pantothenate synthetase (Mycobacterium tuberculosis (strain ATCC 25618 / H37Rv)) (UniProt P9WIL5)
# Protocol Description: Coupled enzyme confirmation of inhibitors against recombinant Mtb PanC (AID 375);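 for inhibition: 0% = full reaction with vehicle and 100% = no enzyme background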
# Condition: coupled enzyme assay; at 10 µM, stronger effect = higher value
Property: inhibition; scope: individual molecules
Report the figure in % without appending any unit label.

Check out these entries, answers already filled in.
>  <Molecule>
O=C(CN1C(=O)C2C3C=CC(C3)C2C1=O)NCc1ccc2c(c1)OCO2 (stereo unspecified)

>  <inhibition (%)>
0

$$$$
>  <Molecule>
COC(=O)c1ccc(CNC(=O)COc2ccccc2Br)o1

>  <inhibition (%)>
5

$$$$
>  <Molecule>
CC(O)Cn1cnc2c1c(=O)n(C)c(=O)n2C (stereo unspecified)

>  <inhibition (%)>
2

$$$$
>  <Molecule>
CCOc1ccc(N2C(N)=NC(N)=NC2(C)C)cc1

>  <inhibition (%)>
0

$$$$
>  <Molecule>
Cc1cc(NC(=O)Cc2cn3ccsc3n2)n(-c2ccccc2)n1

>  <inhibition (%)>
1

$$$$
>  <Molecule>
CCCCn1c(=O)[nH]c(=O)c2c1nc(-c1ccncc1)n2CCOC

>  <inhibition (%)>
1

$$$$
>  <Molecule>
CC(C)CC1NC(=O)N(CC(=O)N2CCN(S(=O)(=O)c3ccc(Cl)cc3)CC2)C1=O (stereo unspecified)

>  <inhibition (%)>
0

$$$$
>  <Molecule>
CC(=O)NC(Cc1cc(C)ccc1C)C(=O)N1CCN(C(=O)Nc2ccc(C(C)=O)cc2)CC1 (stereo unspecified)

>  <inhibition (%)>
0

$$$$

**Query** Provide measured inhibition value, entry: `Cc1cc(C)n(C(C)n2nc(C)cc2C)n1`
**Result** 6

**Query** Provide measured inhibition value, entry: `O=C(CCSc1ccccc1)N1CCN(C(=O)c2ccco2)CC1`
**Result** 0

**Query** Provide measured inhibition value, entry: CC(C)C(NC(=O)c1ccccc1NC(=O)c1ccco1)C(=O)O (stereo unspecified)
**Result** 4

###

Property: inhibition; scope: individual compounds
# Test System: Pantothenate synthetase (Mycobacterium tuberculosis (strain ATCC 25618 / H37Rv))
# Protocol Description: Coupled enzyme confirmation of inhibitors against recombinant Mtb PanC (AID 375);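 for inhibition: 0% = full reaction with vehicle and 100% = no enzyme background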
# Condition: coupled enzyme assay; at 10 µM, stronger effect = higher value
Where a SMILES comes first, the peptide text is derived from it. The star is where a group is joined. Boc = CC(C)(C)OC(=O)*
Report the figure in % without appending any unit label.

Check out these entries, answers already filled in.
>  <Compound>
CSCCC(NC(=O)OC(C)(C)C)C(=O)NC(CC(C)C)C(N)=O (stereo not drawn) (Boc-Met-Leu-NH2; configuration not given here)

>  <Test System>
Pantothenate synthetase (Mycobacterium tuberculosis (strain ATCC 25618 / H37Rv))

>  <Endpoint Result>
0

$$$$
>  <Compound>
c1cncc(-c2nnc3n2N=C(c2cccs2)CS3)c1

>  <Test System>
Pantothenate synthetase (Mycobacterium tuberculosis (strain ATCC 25618 / H37Rv))

>  <Endpoint Result>
6

$$$$
>  <Compound>
COc1ccc(S(=O)(=O)NCC(c2cccnc2)N2CCN(C)CC2)cc1C (centres undefined)

>  <Test System>
Pantothenate synthetase (Mycobacterium tuberculosis (strain ATCC 25618 / H37Rv))

>  <Endpoint Result>
0

$$$$
>  <Compound>
C=CCn1c2ccccc2c2nnc(SCC(=O)NC(C(=O)OC)C(C)C)nc21 (centres undefined)

>  <Test System>
Pantothenate synthetase (Mycobacterium tuberculosis (strain ATCC 25618 / H37Rv))

>  <Endpoint Result>
4

$$$$
>  <Compound>
CCOc1ccc(CCN2C(=O)C3C4C=CC(C4)C3C2=O)cc1OCC (centres undefined)

>  <Test System>
Pantothenate synthetase (Mycobacterium tuberculosis (strain ATCC 25618 / H37Rv))

>  <Endpoint Result>
3

$$$$
>  <Compound>
COc1ccc(OC)c(NC(=O)c2nnn(Cc3ccc(Br)cc3F)c2N)c1

>  <Test System>
Pantothenate synthetase (Mycobacterium tuberculosis (strain ATCC 25618 / H37Rv))

>  <Endpoint Result>
0

$$$$
>  <Compound>
COc1ccc(OC)c(C2=NOC(C(=O)Nc3cccnc3)C2)c1 (centres undefined)

>  <Test System>
Pantothenate synthetase (Mycobacterium tuberculosis (strain ATCC 25618 / H37Rv))

>  <Endpoint Result>
0

$$$$
>  <Compound>
COc1cccc(C2C(C(=O)c3ccc(C)o3)=C(O)C(=O)N2CCCN(C)C)c1 (centres undefined)

>  <Test System>
Pantothenate synthetase (Mycobacterium tuberculosis (strain ATCC 25618 / H37Rv))

>  <Endpoint Result>
0

$$$$

**Query** Provide measured inhibition value, entry: `O=C(Nc1ccccc1C(=O)N1CCOCC1)c1ccncc1`
**Result** 0
